# Tested Target: PLA2G7 (Mus musculus)
# Construct: Proteomes (mouse brain membrane fraction or cell lysates); from tissue; host or cells: mouse brain membrane fraction (or cell lysates, not specified)
# Sequence (Q60963 22-440): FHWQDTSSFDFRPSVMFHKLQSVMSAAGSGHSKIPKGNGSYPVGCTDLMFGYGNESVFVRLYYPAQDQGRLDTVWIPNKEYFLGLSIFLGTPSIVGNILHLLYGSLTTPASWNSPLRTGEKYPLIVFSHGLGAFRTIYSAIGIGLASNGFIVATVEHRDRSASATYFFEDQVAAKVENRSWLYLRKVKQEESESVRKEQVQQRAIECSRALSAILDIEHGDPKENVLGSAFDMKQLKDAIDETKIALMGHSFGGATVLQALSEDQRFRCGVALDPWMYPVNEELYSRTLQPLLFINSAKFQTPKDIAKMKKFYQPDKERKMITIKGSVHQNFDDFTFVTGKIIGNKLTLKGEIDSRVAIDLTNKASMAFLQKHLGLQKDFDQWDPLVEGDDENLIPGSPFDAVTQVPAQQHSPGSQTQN
# Experiment Notes: In vitro competitive activity-based protein profiling (gel-based, FP-Rh or HT-01 probe)
# Type: biochemical
# Experimental Conditions: 10 μM inhibitor; read-out: % Inhibition at 10 μM, D = PLA2G7
inhibition at 10 µM overview

Completed entries (count: 10):
O=C(c1cnn(C(=O)N2CCN(Cc3ccncc3)CC2)c1)N1CCCC1	> 75%
O=C(N1CCCC1)n1cc(-c2ccc(-c3ccccc3)cc2)cn1	25 to 75%
O=C(N1CCN(Cc2ccc(Oc3ccccc3)cc2)CC1)n1cccn1	> 75%
O=C(N1CCN(c2ccccc2N2CCOCC2)CC1)n1cc(C(F)(F)F)cn1	> 75%
Cc1cnn(C(=O)NCCCCCc2ccccc2)c1	< 25%
O=C(c1cnn(C(=O)N2CCN(Cc3nccs3)CC2)c1)N1CCCC1	> 75%
CS(=O)(=O)N1CCCN(C(=O)n2cc(C(F)(F)F)cn2)CC1	> 75%
O=C(N1CCN(Cc2ccccc2)CC1)n1cc(Cl)cn1	> 75%
CN(Cc1cccc(-c2ccncc2)c1)C(=O)n1cc(-c2ccccc2)cn1	> 75%
O=C(N1CCN(Cc2ccccc2)CC1)n1cc(C(F)(F)F)cn1	> 75%

Req: May I ask what inhibition at 10 µM has been recorded for Cc1cnn(C(=O)Nc2ccc3ccccc3c2)c1 ?
Resp: < 25%

Req: # get_value(readout='inhibition at 10 µM', item= O=C(c1cnn(C(=O)N2CCN(Cc3nccs3)CC2)c1)N1CCCCC1 )
Resp: > 75%

Req: Param item = CC(=O)N(C)CCN(C)C(=O)n1cc(C#N)cn1 ; retrieve measured inhibition at 10 µM.
Resp: > 75%
